Test: Cellular toxicity assay in CEM cells
Type: cell-based, human
Conditions: human; CEM cells; read-out: Cytotoxicity; CC50 (μM) CEM
Method: The toxicity of the compounds was assessed in Vero, human PBM, CEM (human lymphoblastoid), MT-2, and HepG2 cells, as described previously (see Schinazi R. F., Sommadossi J.-P., Saalmann V., Cannon D. L., Xie M.-Y., Hart G. C., Smith G. A. & Hahn E. F. Antimicrob. Agents Chemother. 1990, 34, 1061-67). Cycloheximide was included as positive cytotoxic control, and untreated cells exposed to solvent were included as negative controls. […]
measured.attribute: CC50 (µM)
Unit µM implied. Number only.

Suppose we examine the compound `Cc1c(C(=O)C(=O)NCCCCO[P@@](=O)(N[C@@H](C)C(=O)OC(C)C)Oc2ccccc2)c(C)n(C)c1C(=O)Nc1ccc(F)c(F)c1` ; what CC50 value has been reported? 10

----------
Test system: CEM (human lymphoblastoid)
Experiment: Cellular toxicity assay in CEM cells
Format: cell-based
Measured CC50 values are reported for all entries that follow.

Suppose we examine the molecule `O=C(NC(Br)=C(C(=O)N1CCCCC1)c1ccccc1OCCCCCCCCCCCCOc1ccccc1C(C(=O)N1CCCCC1)=C(Br)NC(=O)c1ccc([N+](=O)[O-])cc1)c1ccc([N+](=O)[O-])cc1` ; what CC50 value has been reported? > 100 µM

Now look at this entry.
Suppose we examine the molecule CCOC(=O)C1=C(CNCc2cn(CCCCCCCCn3cc(CNC(=O)C(=O)c4c(C)c(C(=O)Nc5ccc(F)c(F)c5)n(C)c4C)nn3)nn2)NC(c2nccs2)=NC1c1ccc(F)cc1Br (centres unmarked) ; what CC50 value has been reported? > 100 µM

----------
Measured CC50 values are reported for all entries that follow.
Assay: Cellular toxicity assay in human PBM cells
Format: cell-based
Settings: human, human PBM cells; read-out: Cytotoxicity; CC50 (μM) PBM
Unit µM implied. Number only.

Suppose we examine the compound O=S(=O)(NC1CC2=C(C#CC3CC3)C(c3ccc(F)cc3Cl)N=C(c3nccs3)N2C1)C1CC1 (centres unmarked) [Compound 45] ; what CC50 value has been reported? 75

New cases:
Suppose we examine the compound Cc1c(C(=O)C(=O)NCCCB2OC3CC4CC(C4(C)C)C3(C)O2)c(C)n(C)c1C(=O)Nc1ccc(F)c(F)c1 (centres unmarked) [Compound 62] ; what CC50 value has been reported? 13

----------
Assay: Cellular toxicity assay in HepG2 cells
Assay type: cell-based
Conditions: human, HepG2 cells; read-out: Cytotoxicity; CC50 (μM) HepG2
Mark Satisfied only when CC50 stays strictly below 30 µM. Values equal to the cut-off are Not satisfied.

API: query returns whether the compound falls strictly under 30 µM in CC50. Query: Cc1c(C(=O)C(=O)NCCCB2OC3CC4CC(C4(C)C)C3(C)O2)c(C)n(C)c1C(=O)Nc1ccc(F)c(F)c1 (stereo not shown) Satisfied

Fc1ccc(C2N=C(c3ccccn3)NC(CN3CCOCC3)=C2C#CC2CC2)c(Cl)c1 (stereo not shown) ? Not satisfied

CCOC(=O)C1=C(CNCc2cn(CCCCCCCCCCCCn3cc(CNC(=O)C(=O)c4c(C)c(C(=O)Nc5ccc(F)c(F)c5)n(C)c4C)nn3)nn2)NC(c2nccs2)=NC1c1ccc(F)cc1Br (stereo not shown) ? Not satisfied

`Cc1c(C(=O)C(=O)NCc2cn(CCOCCOCCOCCn3cc(CNC(=O)C(=O)c4c(C)c(C(=O)Nc5ccc(F)c(F)c5)n(C)c4C)nn3)nn2)c(C)n(C)c1C(=O)Nc1ccc(F)c(F)c1` ? Not satisfied

`Cc1c(C(=O)C(=O)NCc2cn(CCCCCCCCn3cc(CNC(=O)C(=O)c4c(C)c(C(=O)Nc5ccc(F)c(F)c5)n(C)c4C)nn3)nn2)c(C)n(C)c1C(=O)Nc1ccc(F)c(F)c1` ? Not satisfied

New cases:
API: query returns whether the compound falls strictly under 30 µM in CC50. Query: `C#CCn1c(C)c(C(=O)C(=O)NC(C#C)(CC)CC)c(C)c1C(=O)Nc1ccc(F)c(F)c1` Not satisfied

`Cc1c(C(=O)C(=O)NCCCCO[P@@](=O)(N[C@@H](C)C(=O)OC(C)C)Oc2ccccc2)c(C)n(C)c1C(=O)Nc1ccc(F)c(F)c1` ? Satisfied

CCOC(=O)C1=C(CNCc2cn(CCOCCOCCOCCOCCOCCn3cc(CNC(=O)C(=O)c4c(C)c(C(=O)Nc5ccc(F)c(F)c5)n(C)c4C)nn3)nn2)NC(c2nccs2)=NC1c1ccc(F)cc1Br (stereo not shown) ? Not satisfied

`Cc1c(C(=O)C(=O)NCc2cn(CCOCCOCCn3cc(CNC(=O)C(=O)c4c(C)c(C(=O)Nc5ccc(F)c(F)c5)n(C)c4C)nn3)nn2)c(C)n(C)c1C(=O)Nc1ccc(F)c(F)c1` ? Not satisfied

`Cc1c(C(=O)C(=O)NCc2cn(CCOCCOCC(COCCOCCN=[N+]=[N-])(COCCOCCn3cc(CNC(=O)C(=O)c4c(C)c(C(=O)Nc5ccc(F)c(F)c5)n(C)c4C)nn3)COCCOCCn3cc(CNC(=O)C(=O)c4c(C)c(C(=O)Nc5ccc(F)c(F)c5)n(C)c4C)nn3)nn2)c(C)n(C)c1C(=O)Nc1ccc(F)c(F)c1` ? Not satisfied
